- Tested on: SR
- protocol-summary: NCI tumour cell line growth inhibition, 48 h
Active and inactive are the calls of the source. Cut-off read from the data, not from the text of the source: active = GI50 up to about 1.1 µM and inactive = higher.
property: GI50

> print(dat)
                                    molecule       measured.value
 1  COc1ccc(N2C(=O)/C(=C\c3cccc(Oc4ccccc4)c3)S(=O)(=O)C2c2ccccc2)cc1 (stereo unspecified)    3.7 µM (inactive)
 2    N/C1=C/C(=O)NC(=O)c2c(c3ccccc3oc2=O)C1  > 100 µM (inactive)
 3  O=C1c2ccccc2C(=O)N1C/C=N/NS(=O)(=O)c1ccc(Cl)cc1  > 100 µM (inactive)
 4  COc1ccc(/C=N/NS(=O)(=O)c2ccc(/C=C3\NC(=O)N(C)C3=O)cc2)cc1  > 100 µM (inactive)
 5  COC(=O)/C=C(/C(=O)OC)c1c(C)cc2c(C)cc(C)cc(C)c1-2   4.19 µM (inactive)
 6                     C=C(C)CN(CC#N)CC(=C)C  > 100 µM (inactive)
 7              CN(/C(=N\O)c1ccccc1)c1ccccc1     25 µM (inactive)
 8  COc1ccc2cc(CNCCCN3CCN(CCCNCc4ccc5cc(OC)ccc5c4)CC3)ccc2c1    0.333 µM (active)
 9  O=C1NC(=O)C(C(CC(=O)c2ccc([N+](=O)[O-])cc2)c2ccccc2)C(=O)N1 (stereo unspecified)     40 µM (inactive)
10          C[Si](C)(C)/C=C\CCCN1C(=O)CCC1=O  > 100 µM (inactive)
11  Cc1cc2c(cc1-c1cc3c(cc1C)C(C(C)C)=C(O)C(=O)/C3=C\Nc1nc(-c3ccccc3)cs1)/C(=C/Nc1nc(-c3ccccc3)cs1)C(=O)C(O)=C2C(C)C   32.5 µM (inactive)
12   CCOC(=O)/C(=C/c1ccc(C(=O)OC)cc1)N(CC)CC   47.9 µM (inactive)
13                      CCCCNc1nc(C#N)c(N)s1  > 100 µM (inactive)
14  N=C(N)NCCCC(NCc1c2ccccc2nc2ccccc12)C(=O)O (stereo unspecified)   14.3 µM (inactive)
15          O=C(COC(=O)c1ccccc1)c1ccc(Br)cc1   2.15 µM (inactive)
16  OC(COc1cccc2ccccc12)CN1CCOCC1 (stereo unspecified)  > 100 µM (inactive)
17  COC(=O)C(CC(=O)Nc1ccc(Cl)c(Cl)c1)C(=O)C(=O)Nc1ccc(Cl)c(Cl)c1 (stereo unspecified)   33.3 µM (inactive)
18  OCc1ccccc1O[C@H]1O[C@H](CO)[C@@H](O)[C@H](O)[C@H]1O   > 10 µM (inactive)
19  CC(CC(=O)Nc1ccc(NC(=O)CC(C)/N=N\C(N)=O)cc1)/N=N\C(N)=O (stereo unspecified)   22.8 µM (inactive)
20  O=C(O)c1ccc(O)c(/N=N/c2cc(S(=O)(=O)O)c3ccccc3c2O)c1  > 100 µM (inactive)
21  CC(C)(CN1CCCCC1)C(=O)CC(SCCS(=O)(=O)O)c1ccc(Cl)c(Cl)c1 (stereo unspecified)    3.1 µM (inactive)

====

- Tested on: HL-60
- protocol-summary: NCI tumour cell line growth inhibition, 48 h
The source made the active and inactive calls. Cut-off read from the data, not from the text of the source: active = GI50 up to about 1.1 µM and inactive = higher.
property: GI50

> print(dat)
                                   compound  subject.of.test       measured.value
1  COc1cccc(C2c3cc4c(cc3OC(C)(N3CCCC3)C2C)OCO4)c1O (stereo not given)            HL-60   2.71 µM (inactive)
2   CNS(=O)(=O)NN(C)S(=O)(=O)c1ccc2ccccc2c1            HL-60  > 100 µM (inactive)
3  COC1(OC)CC(CO)(CNc2nc(N)nc(Cl)c2/C=N\O)C1            HL-60   39.3 µM (inactive)
4  O=C1NC(=O)C(C(CC(=O)c2ccc([N+](=O)[O-])cc2)c2ccccc2)C(=O)N1 (stereo not given)            HL-60  > 100 µM (inactive)
5  Cc1c(C)c(C)c(-n2c(=O)n(C)c(=O)n2-n2c(=O)n(C)c(=O)n2-c2c(C)c(C)c(C)c(C)c2C)c(C)c1C            HL-60   12.1 µM (inactive)

====

- Tested on: Hs-578T
- protocol-summary: NCI tumour cell line growth inhibition, 48 h
The source made the active and inactive calls. Rule as the data show it: active = GI50 up to about 1.1 µM and inactive = higher.
# GI50 annotations
property: GI50

> print(dat)
                                   molecule       measured.value
1  C[N+](C)(C)CCN[N+]1(C)CCCc2ccccc21 (stereo not drawn)  > 100 µM (inactive)
2  O=S(=O)(O)c1cc(/N=N/c2cc(S(=O)(=O)O)c3ccccc3c2O)ccc1/C=C/c1ccc(/N=N/c2cc(S(=O)(=O)O)c3ccccc3c2O)cc1S(=O)(=O)O    499 µM (inactive)
3       Nc1ncnc2ccc(Sc3ccc4ncnc(N)c4c3)cc12  > 100 µM (inactive)
4  C[C@]12CC[C@@H]3c4ccc(O)cc4CC[C@H]3[C@@H]1CC[C@@H]2OC(=O)CCc1ccccc1   5.14 µM (inactive)
5  Nc1nc(Cl)cc(NCC2(CO)CCC(Cc3ccccc3)C2)n1 (stereo not drawn)   25.4 µM (inactive)
6  NCCCN(CCCN(C(=O)Nc1ccccc1)c1ccccc1)C(=O)Nc1ccccc1   32.7 µM (inactive)
7  O=S(=O)(O)Oc1cc2c(c(OS(=O)(=O)O)c1)C[C@H](OS(=O)(=O)O)[C@@H](c1ccc(OS(=O)(=O)O)c(OS(=O)(=O)O)c1)O2  > 100 µM (inactive)
8  Cc1ccc(-c2cnc(NC3OC(COC(=O)c4ccccc4)C(OC(=O)c4ccccc4)C(OC(=O)c4ccccc4)C3OC(=O)c3ccccc3)s2)cc1 (stereo not drawn)     82 µM (inactive)

====

- Tested on: NCI-H226
- protocol-summary: NCI tumour cell line growth inhibition, 48 h
Calls of active or inactive are those of the source. No stated cut-off is given here; in the data, active = GI50 up to about 1.1 µM and inactive = higher.
Possible outcomes: true for active, false for inactive

> print(dat)
                                    compound  category.label
 1  CC(C)(C)OC(=O)NC(CS(=O)(=O)O)C(=O)O (configuration not stated)           false
 2  CCOC(=O)C(C(=O)c1ccccc1C(=O)OC)=P(c1ccccc1)(c1ccccc1)c1ccccc1           false
 3  Cc1cc2c(cc1C)NC1=C(O)C(c3c[nH]c4ccc(COc5ccccc5)cc34)OC1=N2 (configuration not stated)           false
 4  CCOC(=O)CCC(NC(=O)c1ccc(N2CCN(c3c(C)nc(N)nc3N)CC2)cc1)C(=O)OCC (configuration not stated)            true
 5  c1cc2cc3c4c5c(cc6ccc7cc8cc9c%10c8c8c7c6c5c8c5c%10c(c1C9N1CCOCCOCCOCCOCCOCC1)c2c45)C3 (configuration not stated)           false
 6  COC(=O)[C@@](C)(COC(=O)C(C)(C)C)NC(=O)OC(C)(C)C           false
 7                   CC(=O)CC(=O)ON(C)C(C)=O           false
 8  COc1ccc2c(c1)[n+]([O-])c(-c1ccc(OC)c(OC)c1)c(N)[n+]2[O-]           false
 9        CSc1ccc2c(c1)N(CCCN(C)C)c1ccccc1S2           false
10  O=CC(NC(=O)N(CCCl)N=O)C(O)C(O)C(O)CO (configuration not stated)           false
11  O=C(Nc1ccc([N+](=O)[O-])cc1)C(=O)C(C(=O)c1ccccc1F)C1OC(=O)c2ccccc21 (configuration not stated)           false
12  CCOC(=O)N1c2ccccc2N(C(=O)OCC)C1CC(=O)/C=C/c1ccccc1           false
13  Nc1nc(Cl)cc(NCC2(CO)CCC(Cc3ccccc3)C2)n1 (configuration not stated)           false
14  CC1(C)NC(C(=O)c2ccccc2)=[N+]([O-])C1(O)c1ccccc1 (configuration not stated)           false
15       N/C(S)=N/N=C/c1cc(CN2CCOCC2)c(N)cn1           false
16  COc1cc([N+](=O)[O-])cc2c1NC(=O)C2(C)SC (configuration not stated)           false
17                   Nc1nc2ccc3ccccc3c2[nH]1           false
18  C/C(=C\Cc1cc(O)ccc1O)CCc1c(C)c(O)c(O)c(C=O)c1C           false
19  CS(=O)(=O)CCC1CCC(=O)O1 (configuration not stated)           false
20            CN(CCO)c1nc2c(c(=O)[nH]1)CNCC2           false
21    N/C1=C/C(=O)NC(=O)c2c(c3ccccc3oc2=O)C1           false
22         O=C1CCCC/C1=C1\C(=O)Nc2cc(F)ccc21           false
